target: Cyclin-dependent kinase 1/cyclin B1 (Homo sapiens, UniProt P06493); experiment: Inhibition of CDK1/cyclinB after 1 hr by mobility shift electrophoresis assay
Sequence (P06493 whole entry): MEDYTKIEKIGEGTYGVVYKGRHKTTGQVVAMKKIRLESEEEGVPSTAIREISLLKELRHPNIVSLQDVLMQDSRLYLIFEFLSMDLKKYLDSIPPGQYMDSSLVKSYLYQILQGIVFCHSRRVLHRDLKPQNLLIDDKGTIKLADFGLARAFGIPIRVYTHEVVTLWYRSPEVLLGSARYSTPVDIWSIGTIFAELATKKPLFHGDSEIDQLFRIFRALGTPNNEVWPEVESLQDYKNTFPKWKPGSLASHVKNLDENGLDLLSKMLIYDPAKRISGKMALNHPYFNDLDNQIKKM
Sequence (P14635 whole entry, further chain): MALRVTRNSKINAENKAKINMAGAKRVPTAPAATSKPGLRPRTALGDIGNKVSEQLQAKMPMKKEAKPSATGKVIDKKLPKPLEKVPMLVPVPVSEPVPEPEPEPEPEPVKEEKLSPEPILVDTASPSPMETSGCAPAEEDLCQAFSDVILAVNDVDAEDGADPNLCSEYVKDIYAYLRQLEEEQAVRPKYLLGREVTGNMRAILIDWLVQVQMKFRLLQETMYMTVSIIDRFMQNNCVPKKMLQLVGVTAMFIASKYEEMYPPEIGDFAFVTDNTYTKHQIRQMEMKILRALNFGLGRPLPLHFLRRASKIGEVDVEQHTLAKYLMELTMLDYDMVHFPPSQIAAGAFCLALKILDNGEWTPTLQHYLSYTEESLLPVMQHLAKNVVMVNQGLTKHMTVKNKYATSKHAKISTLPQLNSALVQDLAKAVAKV

test_smiles: COC(=O)Nc1ccc(-c2nc(N3CCOCC3)c3cnn(C4CCN(C(=O)OC)CC4)c3n2)cc1
IC50: > 50 µM

----------
biological target: Mitogen-activated protein kinase 1 (Homo sapiens); assay: Inhibition of ERK2 after 1 hr by mobility shift electrophoresis assay
Sequence (P28482 whole entry): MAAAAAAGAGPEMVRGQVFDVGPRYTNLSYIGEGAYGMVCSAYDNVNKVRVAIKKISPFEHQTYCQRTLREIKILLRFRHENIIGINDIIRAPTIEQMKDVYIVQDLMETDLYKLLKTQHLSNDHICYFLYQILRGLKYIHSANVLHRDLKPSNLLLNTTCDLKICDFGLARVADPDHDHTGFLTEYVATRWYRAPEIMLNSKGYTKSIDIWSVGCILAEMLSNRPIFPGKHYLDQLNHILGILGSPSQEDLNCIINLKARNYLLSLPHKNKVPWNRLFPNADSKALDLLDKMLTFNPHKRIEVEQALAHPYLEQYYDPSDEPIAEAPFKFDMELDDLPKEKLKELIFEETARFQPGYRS

test_smiles: COC(=O)Nc1ccc(-c2nc(N3CCOCC3)c3cnn(C4CCN(C(=O)OC)CC4)c3n2)cc1
tested_target: Mitogen-activated protein kinase 1 (Homo sapiens)
IC50: > 50 µM

----------
biological target: Platelet-derived growth factor receptor alpha (Homo sapiens, UniProt P16234)
Sequence (P16234 whole entry): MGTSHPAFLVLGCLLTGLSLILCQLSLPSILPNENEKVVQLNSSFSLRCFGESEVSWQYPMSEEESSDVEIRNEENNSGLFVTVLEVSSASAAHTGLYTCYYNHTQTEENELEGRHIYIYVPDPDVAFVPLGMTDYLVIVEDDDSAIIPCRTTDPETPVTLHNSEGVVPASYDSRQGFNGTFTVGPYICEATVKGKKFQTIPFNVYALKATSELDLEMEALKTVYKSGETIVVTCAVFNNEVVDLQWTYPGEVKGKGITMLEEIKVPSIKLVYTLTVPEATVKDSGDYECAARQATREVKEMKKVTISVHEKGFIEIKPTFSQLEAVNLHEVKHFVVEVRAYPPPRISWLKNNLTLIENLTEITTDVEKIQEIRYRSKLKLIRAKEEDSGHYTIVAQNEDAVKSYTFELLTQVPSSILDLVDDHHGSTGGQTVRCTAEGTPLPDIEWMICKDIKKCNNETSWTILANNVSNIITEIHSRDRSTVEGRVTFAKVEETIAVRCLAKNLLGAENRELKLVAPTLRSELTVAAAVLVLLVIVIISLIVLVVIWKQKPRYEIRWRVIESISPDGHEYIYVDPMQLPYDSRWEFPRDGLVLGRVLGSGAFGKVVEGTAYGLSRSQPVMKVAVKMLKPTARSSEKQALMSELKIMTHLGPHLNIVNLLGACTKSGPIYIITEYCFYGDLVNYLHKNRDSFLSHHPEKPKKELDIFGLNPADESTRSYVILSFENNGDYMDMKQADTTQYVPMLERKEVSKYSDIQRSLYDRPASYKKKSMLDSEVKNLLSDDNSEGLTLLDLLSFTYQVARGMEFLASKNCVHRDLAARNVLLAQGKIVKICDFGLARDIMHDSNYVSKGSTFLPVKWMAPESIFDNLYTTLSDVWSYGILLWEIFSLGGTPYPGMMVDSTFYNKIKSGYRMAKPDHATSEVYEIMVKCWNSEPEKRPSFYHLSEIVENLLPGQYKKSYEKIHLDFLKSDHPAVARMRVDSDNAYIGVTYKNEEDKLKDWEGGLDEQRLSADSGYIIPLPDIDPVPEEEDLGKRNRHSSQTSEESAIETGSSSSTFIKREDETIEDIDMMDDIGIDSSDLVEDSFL

test_smiles: COC(=O)Nc1ccc(-c2nc(N3CCOCC3)c3cnn(C4CCN(C(=O)OC)CC4)c3n2)cc1
IC50: > 50 µM

----------
target: Protein kinase C alpha type (Homo sapiens)
pIC50: −log10 of the molar value.

test_smiles: COC(=O)Nc1ccc(-c2nc(N3CCOCC3)c3cnn(C4CCN(C(=O)OC)CC4)c3n2)cc1
pIC50: < 4.30

----------
Target: Mitogen-activated protein kinase kinase kinase kinase 2 (Homo sapiens, UniProt Q12851)
Sequence (Q12851 whole entry): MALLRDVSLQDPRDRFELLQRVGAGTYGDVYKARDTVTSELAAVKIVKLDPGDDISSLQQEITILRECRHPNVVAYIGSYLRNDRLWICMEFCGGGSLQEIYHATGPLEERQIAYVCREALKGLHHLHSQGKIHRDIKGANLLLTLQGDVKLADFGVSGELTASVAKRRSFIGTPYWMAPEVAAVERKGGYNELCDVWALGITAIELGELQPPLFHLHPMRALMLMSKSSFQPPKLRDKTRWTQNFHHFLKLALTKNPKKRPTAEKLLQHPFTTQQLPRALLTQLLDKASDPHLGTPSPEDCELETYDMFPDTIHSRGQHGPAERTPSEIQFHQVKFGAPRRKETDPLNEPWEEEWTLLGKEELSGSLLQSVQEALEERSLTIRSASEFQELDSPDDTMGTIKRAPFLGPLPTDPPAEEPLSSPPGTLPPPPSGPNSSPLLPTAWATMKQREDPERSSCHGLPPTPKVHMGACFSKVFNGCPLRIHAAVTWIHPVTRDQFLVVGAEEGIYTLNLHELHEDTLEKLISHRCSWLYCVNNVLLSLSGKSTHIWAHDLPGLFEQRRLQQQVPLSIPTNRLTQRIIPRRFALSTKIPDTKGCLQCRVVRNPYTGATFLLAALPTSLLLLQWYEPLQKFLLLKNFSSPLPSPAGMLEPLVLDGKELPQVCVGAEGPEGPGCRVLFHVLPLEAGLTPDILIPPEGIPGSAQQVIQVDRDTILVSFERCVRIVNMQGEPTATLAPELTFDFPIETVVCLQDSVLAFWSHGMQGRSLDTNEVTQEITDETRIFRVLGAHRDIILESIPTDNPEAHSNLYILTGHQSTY
Assay: Inhibition of GCK after 1 hr by mobility shift electrophoresis assay
pIC50: −log10 of the molar value.
measured_endpoint: pIC50

test_smiles: COC(=O)Nc1ccc(-c2nc(N3CCOCC3)c3cnn(C4CCN(C(=O)OC)CC4)c3n2)cc1
measured_endpoint: pIC50
endpoint_result: < 4.30

----------
assay: Metabolic stability in nude mouse microsomes assessed as half life at 1 uM by HPLC-MS/MS analysis; type: ADME, Microsome
One threshold, 10 min, splits the recorded half-life at 1 µM values: lower ones are Criterion met, equal or higher ones are Criterion not met.

test_smiles: COC(=O)N1CCC(n2ncc3c(N4CCOCC4)nc(-c4ccc(NC(=O)Nc5cccnc5)cc4)nc32)CC1
assigned_label: Criterion not met
--
test_smiles: COC(=O)N1CCC(n2ncc3c(N4CCOCC4)nc(-c4ccc(NC(=O)OCCO)cc4)nc32)CC1
assigned_label: Criterion not met
--
test_smiles: COC(=O)N1CCC(n2ncc3c(N4CCOCC4)nc(-c4ccc(NC(=O)Nc5ccc(CO)cc5)cc4)nc32)CC1
assigned_label: Criterion not met
--
test_smiles: COC(=O)Nc1ccc(-c2nc(N3CCOCC3)c3cnn(C4CCN(C(=O)OC)CC4)c3n2)cc1
assigned_label: Criterion not met
--
test_smiles: CNC(=O)Nc1ccc(-c2nc(N3CCOCC3)c3cnn(C4CCN(Cc5ccccc5)CC4)c3n2)cc1
assigned_label: Criterion met
--
test_smiles: O=C(Nc1ccc(-c2nc(N3CCOCC3)c3cnn(C4CCN(Cc5cccnc5)CC4)c3n2)cc1)OCCO
assigned_label: Criterion met
--
test_smiles: CNC(=O)Nc1ccc(-c2nc(N3CCOCC3)c3cnn(C4CCN(C(C)=O)CC4)c3n2)cc1
assigned_label: Criterion not met
--
test_smiles: O=C(Nc1ccncc1)Nc1ccc(-c2nc(N3CCOCC3)c3cnn(C4CCN(C(=O)c5cccnc5)CC4)c3n2)cc1
assigned_label: Criterion not met
